EXPERIMENTAL_TARGET: human Claudin 18.2 (CLDN18.2) (human, UniProt P56856-2 1-261)
EXPERIMENTAL_DETAILS: cell-based or functional assay
QUANTITY_KIND: % internalization, NCI-N87-CLDN18.2, 37 C 2 h

Illustrative cases are given below, each with its answer.
{"BINDER": "413H9F8-VL-S32V-V2-DL (antibody, V domains shown) VH: DVQLVESGGGSVQPGGSRRLSCAASGFTFSSFGMHWVRQAPEKGLEWVAYISSGSSPIYYVDKLKGRFTVSRDNPKNTLFLQMTSLRSEDTAMYYCARAGYAVRNALDYWGQGTSITVSS VL: DIVMTQSPSSLSVSVGEKVTLSCKSSQSLLNVGNQKNYLAWYQQKTGQPPKLLIYGASTRESGVPDRFIGSGSGTDFTLTISSVQAEDLAVYFCQNDLFYPLTFGAGTKLELK", "RESULT": "< 30%"}
{"BINDER": "Xi282A12F3(T62A)-V2-DL (antibody, V domains shown) VH: QVQLKESGPVLVQPSQTLSLTCTVAGFSLTSYNVYWVRQPPGKGLEWMGVIWNTGATRYNSALKSRLSISKDTSKSQVFLKMNSLQTEDTATYYCARDSAMPAIPFAYWGQGTLVTVSS VL: DIVMTQSPSSLAVSAGETVTINCKSSQSLFGSVRQKNYLAWYQQKPGQSPKLLIYLASTRESGVPDRFIGSGSGTDFTLTISSVQAEDLAKYYCQQYYDIPWTFGGGTKLELK", "RESULT": "> 50%"}

**Q:** Can you share its % internalization, NCI-N87-CLDN18.2, 37 C 2 h? I mean this binder: hz282-15-V2 (antibody, V domains shown) VH: QVQLQESGPGLVKPSETLSLTCTVSGFSLTSYNVYWIRQPPGKGLEWIGVIWNTGATRYNSALKSRVTISKDTSKSQVSLKLSSVTAADTAVYYCARDSAMPAIPFAYWGQGTLVTVSS VL: DIQMTQSPSSLSASVGDRVTITCKSSQSLFGSVRQKNYLAWYQQKPGKSPKLLIYLASTRESGVPDRFSGSGSGTDFTLTISSLQPEDFAKYYCQQYYDIPWTFGGGTKVEIK
**A:** > 50%

**Q:** Then this binder: hz282-11-V2 (antibody, V domains shown) VH: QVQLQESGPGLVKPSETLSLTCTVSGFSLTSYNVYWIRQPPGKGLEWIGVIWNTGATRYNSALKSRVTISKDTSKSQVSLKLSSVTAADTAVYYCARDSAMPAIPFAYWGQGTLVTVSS VL: DIQMTQSPSSLSASVGDRVTITCKSSQSLFGSVRQKNYLAWYQQKPGKAPKLLIYLASTRESGVPSRFSGSGSGTDFTLTISSLQPEDFATYYCQQYYDIPWTFGGGTKVEIK
**A:** > 50%
